Biological target: Serine/threonine-protein kinase Nek11 (Homo sapiens) (UniProt Q8NG66)
Sequence (whole entry): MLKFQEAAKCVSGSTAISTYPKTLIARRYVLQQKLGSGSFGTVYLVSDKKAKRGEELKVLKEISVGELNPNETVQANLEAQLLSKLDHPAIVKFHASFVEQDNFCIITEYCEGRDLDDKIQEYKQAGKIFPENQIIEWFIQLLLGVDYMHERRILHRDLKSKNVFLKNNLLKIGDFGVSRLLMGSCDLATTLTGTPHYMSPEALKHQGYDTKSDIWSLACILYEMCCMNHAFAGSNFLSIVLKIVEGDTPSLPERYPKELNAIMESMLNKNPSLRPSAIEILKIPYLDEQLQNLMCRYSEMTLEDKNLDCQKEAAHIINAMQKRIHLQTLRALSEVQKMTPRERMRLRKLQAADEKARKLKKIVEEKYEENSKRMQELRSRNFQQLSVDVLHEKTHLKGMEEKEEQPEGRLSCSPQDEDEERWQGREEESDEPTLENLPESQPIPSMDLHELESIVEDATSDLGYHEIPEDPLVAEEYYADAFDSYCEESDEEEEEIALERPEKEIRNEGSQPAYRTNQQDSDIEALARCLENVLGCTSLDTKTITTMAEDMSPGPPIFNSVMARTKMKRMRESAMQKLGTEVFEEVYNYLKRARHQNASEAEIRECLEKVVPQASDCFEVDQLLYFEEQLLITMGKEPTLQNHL
Conditions: at 10 µM
Exercise: state measured residual activity for each of the compounds provided.
Report the figure in % without appending any unit label.

Observed residual activity on Serine/threonine-protein kinase Nek11 (Homo sapiens) (UniProt Q8NG66), entry O=C1Nc2ccc3ncsc3c2/C1=C/c1c[nH]cn1 , equals 13

Observed residual activity, Serine/threonine-protein kinase Nek11 (Homo sapiens) (UniProt Q8NG66), CCn1cnc2c(Nc3cccc(Cl)c3)nc(N[C@@H]3CCCC[C@@H]3N)nc21 : 55

Query CC(C)(C)c1cc(C=C(C#N)C#N)cc(Br)c1O on Serine/threonine-protein kinase Nek11 (Homo sapiens) (UniProt Q8NG66); residual activity returned: 109

Lab entry: Serine/threonine-protein kinase Nek11 (Homo sapiens) (UniProt Q8NG66) assay, compound O=C1NC(=O)c2c1c1c3ccccc3n3c1c1c2c2ccccc2n1C1CCC3O1 , residual activity = 87

* * *

Target: Death-associated protein kinase 1 (Homo sapiens) (UniProt P53355)
Sequence (P53355 whole entry, looked up): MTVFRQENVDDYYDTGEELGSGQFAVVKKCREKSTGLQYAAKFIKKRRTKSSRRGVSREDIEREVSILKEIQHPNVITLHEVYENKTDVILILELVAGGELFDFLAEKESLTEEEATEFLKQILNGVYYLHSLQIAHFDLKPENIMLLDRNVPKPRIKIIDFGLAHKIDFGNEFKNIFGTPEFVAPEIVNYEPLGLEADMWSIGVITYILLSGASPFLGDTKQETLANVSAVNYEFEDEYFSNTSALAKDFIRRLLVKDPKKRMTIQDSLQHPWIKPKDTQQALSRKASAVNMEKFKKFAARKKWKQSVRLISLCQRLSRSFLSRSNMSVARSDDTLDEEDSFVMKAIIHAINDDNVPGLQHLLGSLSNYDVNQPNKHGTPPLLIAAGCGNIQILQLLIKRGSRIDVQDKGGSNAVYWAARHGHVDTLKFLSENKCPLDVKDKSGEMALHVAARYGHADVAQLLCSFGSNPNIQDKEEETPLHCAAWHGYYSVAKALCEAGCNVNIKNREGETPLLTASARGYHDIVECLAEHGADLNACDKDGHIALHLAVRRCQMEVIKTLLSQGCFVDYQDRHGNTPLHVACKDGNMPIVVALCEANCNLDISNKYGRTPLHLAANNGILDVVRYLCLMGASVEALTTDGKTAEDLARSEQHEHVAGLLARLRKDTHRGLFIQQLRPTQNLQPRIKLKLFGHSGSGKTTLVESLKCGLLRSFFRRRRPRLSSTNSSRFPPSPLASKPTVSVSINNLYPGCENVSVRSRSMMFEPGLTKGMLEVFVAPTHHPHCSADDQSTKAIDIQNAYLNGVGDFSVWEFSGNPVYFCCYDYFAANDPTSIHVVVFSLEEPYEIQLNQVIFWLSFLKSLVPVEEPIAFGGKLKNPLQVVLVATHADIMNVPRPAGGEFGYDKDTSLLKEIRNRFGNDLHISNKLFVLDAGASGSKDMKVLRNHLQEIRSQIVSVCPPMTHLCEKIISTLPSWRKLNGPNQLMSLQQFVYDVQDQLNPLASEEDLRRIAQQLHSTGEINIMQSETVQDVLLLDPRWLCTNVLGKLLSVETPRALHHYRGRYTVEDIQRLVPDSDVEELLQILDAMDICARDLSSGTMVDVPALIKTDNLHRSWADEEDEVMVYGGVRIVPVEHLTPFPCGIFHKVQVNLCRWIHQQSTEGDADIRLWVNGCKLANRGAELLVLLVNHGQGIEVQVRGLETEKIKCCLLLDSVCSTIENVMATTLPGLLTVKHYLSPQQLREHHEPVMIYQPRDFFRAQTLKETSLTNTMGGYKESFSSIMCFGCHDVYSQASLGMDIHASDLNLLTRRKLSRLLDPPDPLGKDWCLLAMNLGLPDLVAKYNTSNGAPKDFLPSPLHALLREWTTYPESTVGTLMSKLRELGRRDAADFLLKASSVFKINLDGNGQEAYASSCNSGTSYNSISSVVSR
Details: at 1 µM
Quick rule for you: residual activity at 90% or higher means Criterion met, lower means Criterion not met.

Kindly determine if residual activity recorded for CCn1cnc2c(Nc3cccc(Cl)c3)nc(N[C@@H]3CCCC[C@@H]3N)nc21 is above or exactly 90%.
Criterion met

Exam item: decide whether the reported residual activity for CO[C@H]1C[C@@H]2CC[C@@H](C)[C@@](O)(O2)C(=O)C(=O)N2CCCC[C@H]2C(=O)O[C@H]([C@H](C)C[C@@H]2CC[C@@H](O)[C@H](OC)C2)CC(=O)[C@H](C)/C=C(\C)[C@@H](O)[C@@H](OC)C(=O)[C@H](C)C[C@H](C)/C=C/C=C/C=C/1C is at least 90%.
Criterion met

Is reported residual activity greater than or equal to 90% here: COC(=O)[C@@]1(O)C[C@H]2O[C@]1(C)n1c3ccccc3c3c4c(c5c6ccccc6n2c5c31)C(=O)NC4
Criterion not met

hey, is residual activity for this one >= 90%? NC(=O)c1ccc(-c2nc(-c3ccc4c(c3)OCCO4)c(-c3ccccn3)[nH]2)cc1
Criterion not met

Does the reported residual activity for CC(=O)O/N=C1\C(=C2\C(=O)Nc3cc(Br)ccc32)Nc2ccccc21 fall at or above the 90% mark?
Criterion met

Determine whether measured residual activity meets or exceeds 90% for O=[N+]([O-])c1ccc(-c2nc(-c3ccc(F)cc3)c(-c3ccncc3)[nH]2)cc1
Criterion not met

Item Cn1cnc2cc3c(Nc4cccc(Br)c4)ncnc3cc21 with residual activity of 90% or above?
Criterion met

Does the reported residual activity for CO[C@H]1[C@@H](OC)C[C@H](C)[C@@H](OC)C2=CC(=O)C=C(NC(=O)/C(C)=C/C=C/[C@H](OC)[C@@H](OC(N)=O)/C(C)=C/[C@@H]1C)C2=O fall at or above the 90% mark?
Criterion met

Record C[C@@H](N)[C@H]1CC[C@H](C(=O)Nc2ccncc2)CC1 ; criterion: residual activity no lower than 90%. Met?
Criterion met

Quick check: does O=C1NC(=O)c2c1c1c3ccccc3[nH]c1n1cncc21 have residual activity greater than or equal to 90%?
Criterion not met

Does the compound COc1cc2nccc(Oc3ccc(NC(=S)NC(=O)c4ccccc4C)cc3)c2cc1OC have recorded residual activity that is 90% or more?
Criterion not met

Does the compound Cc1nc(-c2ccccc2)c(-c2ccncc2)o1 have recorded residual activity that is 90% or more?
Criterion not met

Check this compound for residual activity at or above 90%: CC(C)c1nn(-c2c(Cl)cccc2Cl)c2nc(Cc3ccc(OCCO)cc3)[nH]c(=O)c12
Criterion met

Given O=C1Nc2cc(Br)ccc2/C1=C1/Nc2ccccc2/C1=N\O , state whether its residual activity is at least 90%.
Criterion not met

Identify whether the reported residual activity of the following compound is 90% or greater: COc1cc2ncc(-c3ccccc3)nc2cc1OC
Criterion not met

Evaluate COc1cc(OC)c(/C=C2\C(=O)Nc3ccccc32)c(OC)c1 : residual activity at minimum 90%?
Criterion not met

Could you verify whether the entry CNc1cc2c(Nc3cccc(Br)c3)ncnc2cn1 shows residual activity of no less than 90%?
Criterion met

Determine whether measured residual activity meets or exceeds 90% for Nc1ccc2ncnc(NCCc3ccc(Oc4ccccc4)cc3)c2c1
Criterion met

Could you verify whether the entry Cn1sc(=O)n(Cc2ccccc2)c1=O shows residual activity of no less than 90%?
Criterion not met

# bool: residual activity of Nc1ncnc2[nH]nc(Nc3ccc(F)cc3)c12 >= 90%
Criterion met

Is it the case that Oc1cccc(-c2nc(N3CCOCC3)c3oc4ncccc4c3n2)c1 has residual activity reaching or exceeding 90%?
Criterion met

Check the entry Cn1cc(/C=C2\C(=O)Nc3ccc(S(N)(=O)=O)cc32)c2ccccc21 : does residual activity equal or exceed 90%?
Criterion met

Would you say N/C(=N\[N+](=O)[O-])N/N=C\c1ccc(-c2cccc([N+](=O)[O-])c2)o1 shows residual activity at minimum 90%?
Criterion met

Does the reported residual activity for CN(C)c1ccc(/C=C2\C(=O)Nc3ccccc32)cc1 fall at or above the 90% mark?
Criterion met

Test whether the compound O=C(Nc1cccc(Nc2cc(Nc3cccc(C(F)(F)F)c3)ncn2)c1)C1CC1 records residual activity of 90% or higher.
Criterion met

Exam item: decide whether the reported residual activity for O=C(O)c1ccc2c3c1cccc3c(=O)n1c3ccccc3nc21 is at least 90%.
Criterion not met

Given the entry N#CC(C#N)=C(N)/C(C#N)=C/c1ccc(O)cc1 , answer whether its residual activity meets or surpasses 90%.
Criterion not met

# bool: residual activity of c1ccc(-c2n[nH]c3c2oc2ccccc23)cc1 >= 90%
Criterion met

Hi team, for CCOc1cc2ncnc(Nc3cccc(Br)c3)c2cc1OCC , is the recorded residual activity at or above 90%?
Criterion not met

Could you tell me if the measured residual activity of CCOC(=O)c1c(C)[nH]c(/C=C2\C(=O)Nc3ccccc32)c1C reaches 90% or more?
Criterion not met

Has COc1ccc(S(=O)(=O)N(CCO)c2ccccc2CN(C)C/C=C/c2ccc(Cl)cc2)cc1 a recorded residual activity greater than or equal to 90%?
Criterion not met

Reported residual activity at or above 90%? Oc1n[nH]c2nnc(-c3c(-c4ccccc4)nn4ccccc34)cc12
Criterion not met

hey, is residual activity for this one >= 90%? COc1ccc2c(c[n+](C)c3c4cc5c(cc4ccc23)OCO5)c1OC
Criterion met

Dear colleague, could you confirm whether O=C1NC(=O)/C(=C/c2ccc3c(c2)OC(F)(F)O3)S1 has residual activity at or above 90%?
Criterion met

Check if residual activity >= 90% (inclusive). Item: Nc1ncnc2c1cnn2-c1ccccc1
Criterion not met

Please tell me: is the compound Cc1ccc(NC2=CC(=O)c3sc(C)nc3C2=O)cc1 at or over 90% in terms of residual activity?
Criterion not met

* * *

Biological target: Ephrin type-A receptor 4 (Homo sapiens)
Conditions: at 10 µM
EXPERIMENTAL ENDPOINT: residual activity (%)
Numeric answer only, unit % assumed.

Item: CCn1cnc2c(Nc3cccc(Cl)c3)nc(N[C@@H]3CCCC[C@@H]3N)nc21 | System: Ephrin type-A receptor 4 (Homo sapiens) | residual activity: 49

The molecule c1cc(-c2cnn3cc(-c4ccc(OCCN5CCCCC5)cc4)cnc23)ccn1 , tested on Ephrin type-A receptor 4 (Homo sapiens), showed residual activity of 39

Noted residual activity for O=C1Nc2ccc3ncsc3c2/C1=C/c1c[nH]cn1 , tested on Ephrin type-A receptor 4 (Homo sapiens): 68

Form: item C[S+]([O-])c1ccc(-c2nc(-c3ccc(F)cc3)c(-c3ccncc3)[nH]2)cc1 (configuration not stated) ; test system Ephrin type-A receptor 4 (Homo sapiens); residual activity: 80

Noted residual activity for COc1cc(OC)c(/C=C2\C(=O)Nc3ccccc32)c(OC)c1 , tested on Ephrin type-A receptor 4 (Homo sapiens): 105

The molecule CCc1nc(-c2ccc(OC)cc2)[nH]c1-c1ccncc1 , when measured on Ephrin type-A receptor 4 (Homo sapiens), yielded residual activity of 109

Observed residual activity on Ephrin type-A receptor 4 (Homo sapiens), entry COc1cc2ncnc(Nc3ccc(OCc4ccccc4)cc3)c2cc1OC , equals 93
